Let's look at some compounds and their measured EC50.
# system.under.test: H723R-pendrin (Homo sapiens, UniProt O43511, H723R)
# assay.explanation: YFP fluorescence quenching assay (Cl−/I− exchange activity of pendrin)
# condition.notes: PANC-1 cells stably expressing human H723R-pendrin and YFP-F46L/H148Q/I152L; compound incubation 20-24 hours; iodide influx

compound: COc1ccc(-c2cncc(C3=C(N)N(CC4CCC4)CC3=O)n2)cc1OC
EC50: 5 to 10 µM
//
compound: NC1=C(c2cccc(-c3ccc(O)c(O)c3)n2)C(=O)CN1CC1CCCC1
EC50: < 5 µM
//
compound: CN1CCC(CN2CC(=O)C(c3cncc(-c4ccc(O)c(O)c4)n3)=C2N)C1 (stereo not shown)
EC50: > 10 µM
//
compound: COc1ccc(-c2cncc(C3=C(N)N(c4ccccc4Cl)CC3=O)n2)cc1O
EC50: > 10 µM

###

# Lookup of reported EC50 keyed by entry
# system.under.test: H723R-pendrin (Homo sapiens, UniProt O43511, H723R)
# Construct: expressed in transfected cells; host or cells: PANC-1
# Sequence (O43511 1-780 H723R): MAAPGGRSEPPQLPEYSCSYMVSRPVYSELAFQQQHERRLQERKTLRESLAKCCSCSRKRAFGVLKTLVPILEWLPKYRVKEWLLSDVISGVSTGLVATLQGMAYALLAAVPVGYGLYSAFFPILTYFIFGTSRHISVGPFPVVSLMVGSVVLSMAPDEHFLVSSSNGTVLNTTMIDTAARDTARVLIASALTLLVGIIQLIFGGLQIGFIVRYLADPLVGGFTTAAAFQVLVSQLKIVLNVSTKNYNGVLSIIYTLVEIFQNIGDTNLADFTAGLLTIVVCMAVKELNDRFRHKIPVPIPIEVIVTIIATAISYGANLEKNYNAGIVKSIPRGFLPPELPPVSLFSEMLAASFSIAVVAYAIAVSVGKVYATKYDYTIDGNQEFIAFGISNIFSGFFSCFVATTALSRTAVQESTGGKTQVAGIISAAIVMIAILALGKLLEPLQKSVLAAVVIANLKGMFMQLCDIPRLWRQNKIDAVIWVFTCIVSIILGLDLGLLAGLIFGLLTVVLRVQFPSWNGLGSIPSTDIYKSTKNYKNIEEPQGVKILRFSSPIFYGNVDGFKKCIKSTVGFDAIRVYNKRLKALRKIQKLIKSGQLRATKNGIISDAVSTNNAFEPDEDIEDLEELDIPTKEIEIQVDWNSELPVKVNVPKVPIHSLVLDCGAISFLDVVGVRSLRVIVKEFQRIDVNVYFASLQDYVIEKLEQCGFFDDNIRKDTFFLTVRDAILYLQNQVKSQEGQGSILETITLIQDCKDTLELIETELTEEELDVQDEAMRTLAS
# assay.explanation: YFP fluorescence quenching assay (Cl−/I− exchange activity of pendrin)
# Assay type: cell-based
# condition.notes: PANC-1 cells stably expressing human H723R-pendrin and YFP-F46L/H148Q/I152L; compound incubation 20-24 hours; iodide influx

compound: COc1ccc(-c2cncc(C3=C(N)N(C4CCCC4)CC3=O)n2)cc1OC
EC50: 5 to 10 µM
--
compound: NC1=C(c2cccc(-c3ccc(O)c(O)c3)n2)C(=O)CN1CC1CCNC1 (centres unmarked)
EC50: > 10 µM
--
compound: CNCCOc1cc(-c2cncc(C3=C(N)N(CC4CCCC4)CC3=O)n2)ccc1O
EC50: < 5 µM
--
compound: NC1=C(c2cccc(-c3ccc(O)c(O)c3)n2)C(=O)CN1c1ccccc1Cl
EC50: > 10 µM
--
compound: NC1=C(c2cncc(-c3ccc(O)c(O)c3)n2)C(=O)CN1c1cccc(Cl)c1Cl
EC50: 5 to 10 µM
--
compound: COc1cc(-c2cncc(C3=C(N)N(c4ccccc4Cl)CC3=O)n2)cnc1OC
EC50: > 10 µM
--
compound: CC(C)CN1CC(=O)C(c2cncc(-c3ccc(O)c(O)c3)n2)=C1N
EC50: < 5 µM
--
compound: NC1=C(c2cncc(-c3ccc(O)c(O)c3)n2)C(=O)CN1CC1CCCCC1
EC50: < 5 µM
